# assayNotes: Plasma protein binding in rat at 20 uM after 1 hr by HPLC analysis
# Type: ADME, cell-free
# testParameters: read-out: PPB (converted)
propertyLabel: fraction unbound at 1 h, 20 µM

givenSmiles	fraction unbound at 1 h, 20 µM
COCCOCCOCCOCCOCCOCCOCCOCCOCCOCCOCCOCCOCCOCCOCCOCCOCCOCCOCCOCCOCCOCCOCCOCCCNc1nc(C(=O)NCCOCCOCCOCCOCCOCCOCCOCCOCCOCCOCCOCCOCCOCCOCCOCCOCCOCCOCCOCCOCCOCCOCCOCCOC)c(NCCCOCCOCCOCCOCCOCCOCCOCCOCCOCCOCCOCCOCCOCCOCCOCCOCCOCCOCCOCCOCCOCCOCCOCCOC)nc1C(=O)NCCOCCOCCOCCOCCOCCOCCOCCOCCOCCOCCOCCOCCOCCOCCOCCOCCOCCOCCOCCOCCOCCOCCOCCOC	0.61
COCCOCCOCCOCCNC(=O)c1nc(N)c(C(=O)NCCOCCOCCOCCOC)nc1N	1
COCCOCCOCCOCCOCCOCCOCCOCCCNc1nc(C(=O)NCCOCCOCCOCCOCCOCCOCCOCCOCCOCCOCCOCCOCCOCCOCCOCCOCCOCCOCCOCCOCCOCCOCCOCCOC)c(NCCCOCCOCCOCCOCCOCCOCCOCCOC)nc1C(=O)NCCOCCOCCOCCOCCOCCOCCOCCOCCOCCOCCOCCOCCOCCOCCOCCOCCOCCOCCOCCOCCOCCOCCOCCOC	0.7
COCCOCCOCCOCCOCCOCCOCCOCCNC(=O)c1nc(N)c(C(=O)NCCOCCOCCOCCOCCOCCOCCOCCOC)nc1N	1
CCCNc1nc(C(=O)NCCOCCOCCOCCOCCOCCOCCOCCOCCOCCOCCOCCOCCOCCOCCOCCOCCOCCOCCOCCOCCOCCOCCOCCOC)c(NCCC)nc1C(=O)NCCOCCOCCOCCOCCOCCOCCOCCOCCOCCOCCOCCOCCOCCOCCOCCOCCOCCOCCOCCOCCOCCOCCOCCOC	0.87
COCCOCCOCCOCCOCCOCCOCCOCCOCCOCCOCCOCCOCCOCCOCCOCCOCCOCCOCCOCCOCCOCCOCCOCCNC(=O)c1nc(N)c(C(=O)NCCOCCOCCOCCOCCOCCOCCOCCOCCOCCOCCOCCOCCOCCOCCOCCOCCOCCOCCOCCOCCOCCOCCOCCOC)nc1N	0.95
COCCOCCOCCOCCOCCOCCOCCOCCOCCOCCOCCOCCCNc1nc(C(=O)NCCOCCOCCOCCOCCOCCOCCOCCOCCOCCOCCOCCOC)c(NCCCOCCOCCOCCOCCOCCOCCOCCOCCOCCOCCOCCOC)nc1C(=O)NCCOCCOCCOCCOCCOCCOCCOCCOCCOCCOCCOCCOC	0.97
COCCOCCOCCOCCOCCOCCOCCOCCCNc1nc(C(=O)NCCOCCOCCOCCOCCOCCOCCOCCOCCOCCOCCOCCOC)c(NCCCOCCOCCOCCOCCOCCOCCOCCOC)nc1C(=O)NCCOCCOCCOCCOCCOCCOCCOCCOCCOCCOCCOCCOC	0.99

====

# assayNotes: Clearance in Sprague-Dawley rat
# Format: ADME, organism-based
# testParameters: in vivo
propertyLabel: clearance (mL/min)

compound	propertyLabel	valueReported
CNC(=O)c1c(I)c(NC(C)=O)c(I)c(C(=O)[O-])c1I.[Na+] [IOTHALAMATE SODIUM]	clearance	2.5
COCCOCCOCCOCCOCCOCCOCCOCCOCCOCCOCCOCCOCCOCCOCCOCCOCCOCCOCCOCCOCCOCCOCCOCCNC(=O)c1nc(N)c(C(=O)NCCOCCOCCOCCOCCOCCOCCOCCOCCOCCOCCOCCOCCOCCOCCOCCOCCOCCOCCOCCOCCOCCOCCOCCOC)nc1N	clearance	2.8
COCCOCCOCCOCCOCCOCCOCCOCCOCCOCCOCCOCCCNc1nc(C(=O)NCCOCCOCCOCCOCCOCCOCCOCCOCCOCCOCCOCCOC)c(NCCCOCCOCCOCCOCCOCCOCCOCCOCCOCCOCCOCCOC)nc1C(=O)NCCOCCOCCOCCOCCOCCOCCOCCOCCOCCOCCOCCOC	clearance	3.1

====

# Species: Rattus norvegicus
# assayNotes: Volume of distribution in Sprague-Dawley rat
# Format: ADME, organism-based
# testParameters: in vivo
propertyLabel: Vd (mL)

Some entries whose results are on file:
compound	propertyLabel	valueReported
COCCOCCOCCOCCOCCOCCOCCOCCOCCOCCOCCOCCNC(=O)c1nc(N)c(C(=O)NCCOCCOCCOCCOCCOCCOCCOCCOCCOCCOCCOCCOC)nc1N	Vd	70
COCCOCCOCCOCCOCCOCCOCCOCCOCCOCCOCCOCCCNc1nc(C(=O)NCCOCCOCCOCCOCCOCCOCCOCCOCCOCCOCCOCCOC)c(NCCCOCCOCCOCCOCCOCCOCCOCCOCCOCCOCCOCCOC)nc1C(=O)NCCOCCOCCOCCOCCOCCOCCOCCOCCOCCOCCOCCOC	Vd	61
COCCOCCOCCOCCOCCOCCOCCOCCOCCOCCOCCOCCCNc1nc(C(=O)NCCOCCOCCOCCOCCOCCOCCOCCOCCOCCOCCOCCOCCOCCOCCOCCOCCOCCOCCOCCOCCOCCOCCOCCOC)c(NCCCOCCOCCOCCOCCOCCOCCOCCOCCOCCOCCOCCOC)nc1C(=O)NCCOCCOCCOCCOCCOCCOCCOCCOCCOCCOCCOCCOCCOCCOCCOCCOCCOCCOCCOCCOCCOCCOCCOCCOC	Vd	68
Nc1nc(C(=O)N[C@H](CO)C(=O)O)c(N)nc1C(=O)N[C@H](CO)C(=O)O [RELMAPIRAZIN]	Vd	83

(1) CNC(=O)c1c(I)c(NC(C)=O)c(I)c(C(=O)[O-])c1I.[Na+] [IOTHALAMATE SODIUM]
(2) COCCOCCOCCOCCOCCOCCOCCOCCOCCOCCOCCOCCOCCOCCOCCOCCOCCOCCOCCOCCOCCOCCOCCOCCNC(=O)c1nc(N)c(C(=O)NCCOCCOCCOCCOCCOCCOCCOCCOCCOCCOCCOCCOCCOCCOCCOCCOCCOCCOCCOCCOCCOCCOCCOCCOC)nc1N
Returns: the label, 1 or 2 , whose recorded Vd is the lower number. Give the label of your selection. 2
